Reported MIC by item:
# Test system: Bacillus subtilis
# method: Antimicrobial activity against Bacillus subtilis ATCC 6633
# Assay type: functional
measured metric: MIC

# line notation, measured metric, reported measurement
measured = [
    ("Cn1cnc([N+](=O)[O-])c1/C=C1\\Oc2ccc(Br)cc2C1=O", "MIC", "> 100 µg/mL"),
    ("Cc1ccc2c(c1)O/C(=C\\c1c([N+](=O)[O-])ncn1C)C2=O", "MIC", "> 100 µg/mL"),
    ("Cn1c([N+](=O)[O-])cnc1C=C1C(=O)c2ccccc2C1=O", "MIC", "50 µg/mL"),
    ("COc1ccc2c(c1)O/C(=C\\c1ncc([N+](=O)[O-])n1C)C2=O", "MIC", "0.78 µg/mL"),
    ("Cn1c([N+](=O)[O-])cnc1/C=C1\\Oc2ccc(I)cc2C1=O", "MIC", "> 100 µg/mL"),
    ("COc1ccc2c(c1)O/C(=C\\c1c([N+](=O)[O-])ncn1C)C2=O", "MIC", "> 100 µg/mL"),
    ("Cn1c([N+](=O)[O-])cnc1/C=C1\\Oc2ccc(Cl)cc2C1=O", "MIC", "1.56 µg/mL"),
    ("Cn1c([N+](=O)[O-])cnc1/C=C1\\Oc2c(Cl)cccc2C1=O", "MIC", "3.12 µg/mL"),
    ("Cn1c([N+](=O)[O-])cnc1/C=C1\\Oc2ccc(Br)cc2C1=O", "MIC", "> 100 µg/mL"),
    ("Cc1cccc2c1O/C(=C\\c1ncc([N+](=O)[O-])n1C)C2=O", "MIC", "1.56 µg/mL"),
]
